Target: NMNAT2
Assay: pooled miR-30 sensor sort-seq; sequence = guide strand; also: reference of the scale not given here
Conditions: shRNA
Property: sensor-assay potency score (higher = more potent)

Sequence code	Reported value
TAGAAATCTACTTCTATGGCAC	0.539
TTATATTAAATAGGAAACCTGT	-0.594
TAGTCAAACACTGATACCCCAA	-0.77
TTGGTGATGGGATTGAAGCTGC	-0.365
TAAAAGTATCCTAATACTCAGG	-0.84
TTTATTTCTAAAGGAAACCTAA	-0.873
TAAAGAACATTGTCTTTGCTTT	-0.457

====

Biological target: FIZ1
Assay: pooled miR-30 sensor sort-seq; sequence = guide strand
Conditions: shRNA
Property: sensor-assay potency score (higher = more potent)

Sequence code	Reported value
TAGATCAGTCCATTCTACTGGG	0.523
TTCTCGCACTCGGAGCAGCCGA	-1.7
TTGAGGTAGCACTCGTGGCGGA	-0.466
TGAGCGGAACAGCTTCTCGCAC	-1.25
TTTCTCACCAGTGTGGACGACC	-0.391
TTGAAGTCGCGCTCGCAGCGCG	-0.792
AACAGCTTCTCGCACTCGGAGC	-1.76

Origin of the recorded values: the OligoGym collection
